Molecular target: T1, human Nectin-4-eGFP on T24 cells (clone 3) (human, UniProt Q96NY8 32-510)
T1 sequence: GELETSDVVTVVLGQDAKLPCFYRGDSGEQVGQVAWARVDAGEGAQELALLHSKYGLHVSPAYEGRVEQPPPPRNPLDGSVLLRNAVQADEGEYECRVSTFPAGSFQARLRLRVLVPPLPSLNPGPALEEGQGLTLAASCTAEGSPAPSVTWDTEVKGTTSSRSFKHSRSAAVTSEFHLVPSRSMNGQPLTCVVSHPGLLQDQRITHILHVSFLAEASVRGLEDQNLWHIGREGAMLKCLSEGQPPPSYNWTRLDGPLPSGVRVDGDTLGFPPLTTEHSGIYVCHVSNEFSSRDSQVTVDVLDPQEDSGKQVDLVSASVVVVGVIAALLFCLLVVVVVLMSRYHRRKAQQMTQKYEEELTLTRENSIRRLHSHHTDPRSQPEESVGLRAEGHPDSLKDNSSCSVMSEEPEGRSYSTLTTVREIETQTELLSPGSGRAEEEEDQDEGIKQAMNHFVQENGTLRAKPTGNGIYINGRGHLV
Assay: cell-based or functional assay
endpointLabel: EC50 (nM) of nectin-4-eGFP signal loss
One number for each entry, in nM.

Example cases with answers are listed next.
binder	EC50 (nM) of nectin-4-eGFP signal loss
enfortumab (antibody, V domains shown) VH: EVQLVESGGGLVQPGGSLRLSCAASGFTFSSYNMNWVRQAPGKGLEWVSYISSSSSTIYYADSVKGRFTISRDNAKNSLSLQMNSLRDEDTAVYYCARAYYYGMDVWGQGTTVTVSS VL: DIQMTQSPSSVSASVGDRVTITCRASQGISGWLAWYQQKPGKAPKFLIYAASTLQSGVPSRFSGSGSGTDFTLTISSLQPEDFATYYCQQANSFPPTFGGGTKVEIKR	2.13
Ab8 ADC (Ab8 conjugated as in Formula XI, DAR of 8) (antibody, human IgG1, lambda, L234A L235A, V domains shown, camptothecin analog linker-payload of Formula XI on cysteine thiols after full reduction, DAR of 8 per antibody; positions not given, Antibody-drug conjugate of Ab8; also called Ab8 (ADC column)) VH: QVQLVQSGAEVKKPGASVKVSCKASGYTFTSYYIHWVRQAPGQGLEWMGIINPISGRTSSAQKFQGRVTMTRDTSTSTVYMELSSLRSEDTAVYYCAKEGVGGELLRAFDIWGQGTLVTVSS VL: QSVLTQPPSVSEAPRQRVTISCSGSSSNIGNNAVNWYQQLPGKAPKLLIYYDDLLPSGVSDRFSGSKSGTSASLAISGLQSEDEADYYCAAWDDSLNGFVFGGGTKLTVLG	2.48
Ab7 (antibody, human IgG1, lambda, L234A L235A, V domains shown, Unconjugated antibody; also called Antibody 7; nectin-4 antibody Ab7) VH: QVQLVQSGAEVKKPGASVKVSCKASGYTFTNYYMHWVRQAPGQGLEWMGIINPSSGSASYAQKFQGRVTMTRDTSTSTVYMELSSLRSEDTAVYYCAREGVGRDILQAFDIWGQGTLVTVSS VL: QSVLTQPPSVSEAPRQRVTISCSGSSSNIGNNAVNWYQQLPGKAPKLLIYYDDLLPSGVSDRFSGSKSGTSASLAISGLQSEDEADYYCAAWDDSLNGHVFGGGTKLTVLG	3.37

Consider the record given below.
input: Item Ab4 ADC (Ab4 conjugated as in Formula XI, DAR of 8) (antibody, human IgG1, kappa, L234A L235A, V domains shown, camptothecin analog linker-payload of Formula XI on cysteine thiols after full reduction, DAR of 8 per antibody; positions not given, Antibody-drug conjugate of Ab4; also called Ab4 (ADC column)) VH: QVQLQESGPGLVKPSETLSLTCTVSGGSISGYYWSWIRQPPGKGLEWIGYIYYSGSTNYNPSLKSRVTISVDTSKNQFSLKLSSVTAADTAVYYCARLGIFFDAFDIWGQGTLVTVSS VL: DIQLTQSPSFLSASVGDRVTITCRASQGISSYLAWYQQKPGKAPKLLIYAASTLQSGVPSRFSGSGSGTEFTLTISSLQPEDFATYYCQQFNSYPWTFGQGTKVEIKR has what recorded EC50 (nM) of nectin-4-eGFP signal loss?
output: 2.1
